System: DU145 (human prostate cancer cells)
assay-readout: GI50 (nM)
Answers are plain numbers, in nM.

Examples from the recorded data:
| compound | reported |
| --- | --- |
| C/C=C1\NC(=O)c2csc(n2)CNC(=O)C[C@@H](/C=C/CCSC(=O)CCCCCCC)OC(=O)[C@H](Cc2ccc(O)cc2)NC1=O | 30 |
| C/C=C1\NC(=O)c2csc(n2)CNC(=O)C[C@@H](/C=C/CCSC(=O)CCCCCCC)OC(=O)[C@H](Cc2ccccc2)NC1=O | 20 |
| C/C=C1\NC(=O)c2csc(n2)CNC(=O)C[C@@H](/C=C/CCSC(=O)CCN)OC(=O)[C@H](C(C)C)NC1=O | 300 |
| C/C=C1\NC(=O)c2csc(n2)CNC(=O)C[C@@H](/C=C/CCSC(=O)CCCCCCC)OC(=O)[C@H](CC)NC1=O | 4 |
| CCCCCCCC(=O)SCC/C=C/[C@@H]1CC(=O)NCc2nc(cs2)C(=O)NCC(=O)N[C@@H](C(C)C)C(=O)O1 | 50 |

Below are some compounds; for each one, tell me its GI50.
1. C/C=C1\NC(=O)c2csc(n2)CNC(=O)C[C@@H](/C=C/CCSC(=O)CCCCCCC)OC(=O)[C@@H](C)NC1=O
2. C/C=C1\NC(=O)c2csc(n2)[C@H](Cc2ccccc2)NC(=O)C[C@@H](/C=C/CCSC(=O)CCCCCCC)OC(=O)[C@H](C(C)C)NC1=O
3. C/C=C1\NC(=O)c2csc(n2)CNC(=O)C[C@@H](/C=C/CCS)OC(=O)[C@H](C(C)C)NC1=O

100
140
34

* * *

Here we list molecules with their recorded GI50 when tested on BGC-823 (human gastric cancer cells).
Give bare numbers, in nM.

The following molecules have reported results that may help.
| smiles-data | units-of-measure | GI50 |
| --- | --- | --- |
| C/C=C1\NC(=O)c2csc(n2)CNC(=O)C[C@@H](/C=C/CCSC(=O)CCCCCCC)OC(=O)[C@H](Cc2ccc(O)cc2)NC1=O | nM | 300 |
| C/C=C1\NC(=O)c2csc(n2)CNC(=O)C[C@@H](/C=C/CCSC(=O)Cc2ccccc2)OC(=O)[C@H](C(C)C)NC1=O | nM | 2550 |

Shifting focus to the molecule that follows.
Measured GI50, "CCCCCCCC(=O)SCC/C=C/[C@@H]1CC(=O)NCc2nc(cs2)C(=O)N[C@H](CC)C(=O)N[C@@H](C(C)C)C(=O)O1" : 1020

* * *

System: BGC-823 (human gastric cancer cells)
Classification field. Basis: GI50. Definitions: LOW = under 300 nM, MEDIUM = from 300 nM up to 2000 nM, HIGH = 2000 nM and over

| molecule | cat |
| --- | --- |
| C/C=C1\NC(=O)c2csc(n2)CNC(=O)C[C@@H](/C=C/CCSC(=O)CCCCCCC)OC(=O)[C@H](CC)NC1=O | LOW |
| C/C=C1\NC(=O)c2ccnc(c2)CNC(=O)C[C@@H](/C=C/CCSC(=O)CCCCCCC)OC(=O)[C@H](C(C)C)NC1=O | LOW |
| C/C=C1\NC(=O)c2csc(n2)CNC(=O)C[C@@H](/C=C/CCSC(C)=O)OC(=O)[C@H](C(C)C)NC1=O | HIGH |
| C/C=C1\NC(=O)c2csc(n2)[C@H](Cc2ccccc2)NC(=O)C[C@@H](/C=C/CCSC(=O)CCCCCCC)OC(=O)[C@H](C(C)C)NC1=O | HIGH |

Note: place this molecule into its band. Item: "C/C=C1\NC(=O)c2csc(n2)CNC(=O)C[C@@H](/C=C/CCSC(=O)CCCCCCC)OC(=O)[C@H](C)N(C)C1=O"
HIGH

Where would "C=C1NC(=O)c2csc(n2)CNC(=O)C[C@@H](/C=C/CCSC(=O)CCCCCCC)OC(=O)[C@H](C(C)C)NC1=O" land among the classes by reported GI50?
MEDIUM

Category lookup for the molecule C/C=C1\NC(=O)C2N=C(CNC(=O)C[C@@H](/C=C/CCSC(=O)CCCCCCC)OC(=O)[C@H](C(C)C)NC1=O)S[C@@H]2C (stereo partly shown)
MEDIUM

In plain terms, what class is "C/C=C1\NC(=O)c2csc(n2)CNC(=O)C[C@@H](/C=C/CCSC(=O)CCCCCCC)OC(=O)[C@H](C(C)C)N(C)C1=O" ?
MEDIUM

Textbook exercise: identify the category of the molecule given here, "C/C=C1\NC(=O)c2csc(n2)CNC(=O)C[C@@H](/C=C/CCSC(=O)CCCCCCC)OC(=O)[C@H](C)NC1=O" , according to its measured value.
HIGH

Which band does "C/C=C1\NC(=O)c2csc(n2)CNC(=O)C[C@@H](/C=C/CCSC(=O)CCCCCCC)OC(=O)[C@H](CCSC)NC1=O" fall in?
LOW

Could you place "C/C=C1\NC(=O)c2csc(n2)[C@H](C)NC(=O)C[C@@H](/C=C/CCSC(=O)CCCCCCC)OC(=O)[C@H](C(C)C)NC1=O" in its proper category? Many thanks.
HIGH

Class? Entry: "C/C=C1\NC(=O)c2csc(n2)CNC(=O)C[C@@H](/C=C/CCSC(=O)CCCCCCC)OC(=O)[C@@H](C)NC1=O"
LOW
